experimental_system: elastase (Sus scrofa, UniProt P00772)
experimental_details: in vitro
settings: isolated enzyme elastase, pH 8, Residual peak area (%)/elastase
property_measured: remaining at 1 h, 60 μM (%)
Dear colleague, please return just the value in %, with no unit written.

Looking up CC(C)C[C@H](NC(=O)[C@H](Cc1ccc(O)cc1)NC(=O)[C@H](CCC(=O)O)NC(=O)[C@H](CCC(=O)O)NC(=O)[C@H](Cc1c[nH]c2ccccc12)NC(=O)[C@H](CO)NC(=O)[C@@H](NC(=O)[C@H](Cc1ccccc1)NC(=O)[C@@H](NC(=O)[C@@H](N)[C@@H](C)O)C(C)C)[C@@H](C)O)C(=O)N[C@@H](CC(=O)O)C(=O)N[C@@H](Cc1c[nH]c2ccccc12)C(=O)N[C@H](C(=O)O)C(C)C [PCSK9_1, reference compound] , I found its remaining at 1 h, 60 μM recorded as 28.9

====

experimental_system: chymotrypsin (Bos taurus)
experimental_details: in vitro
settings: isolated enzyme chymotrypsin, pH 7.8, Residual peak area (%)/chymotrypsin
property_measured: remaining at 1 h, 60 μM (%)
Dear colleague, please return just the value in %, with no unit written.

Looking up CC(C)C[C@H](NC(=O)[C@H](Cc1ccc(O)cc1)NC(=O)[C@H](CCC(=O)O)NC(=O)[C@H](CCC(=O)O)NC(=O)[C@H](Cc1c[nH]c2ccccc12)NC(=O)[C@H](CO)NC(=O)[C@@H](NC(=O)[C@H](Cc1ccccc1)NC(=O)[C@@H](NC(=O)[C@@H](N)[C@@H](C)O)C(C)C)[C@@H](C)O)C(=O)N[C@@H](CC(=O)O)C(=O)N[C@@H](Cc1c[nH]c2ccccc12)C(=O)N[C@H](C(=O)O)C(C)C [PCSK9_1, reference compound] , I found its remaining at 1 h, 60 μM recorded as 47.7

====

experimental_system: porcine pancreatic elastase (Sus scrofa, UniProt P00772)
Sequence (P00772 27-266): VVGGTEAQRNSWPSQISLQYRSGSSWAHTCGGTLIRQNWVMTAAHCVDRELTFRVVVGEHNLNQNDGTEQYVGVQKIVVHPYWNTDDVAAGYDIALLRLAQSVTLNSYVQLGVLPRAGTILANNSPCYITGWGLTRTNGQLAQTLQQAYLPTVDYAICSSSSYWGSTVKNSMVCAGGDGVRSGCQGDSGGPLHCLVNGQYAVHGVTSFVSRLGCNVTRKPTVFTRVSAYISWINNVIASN
experimental_details: Elastase inhibitory activity of peptides (AAApNA hydrolysis; IC50, Ki, residual activity)
Format: biochemical
settings: peptide 0.01 μM; elastase 0.5 μM, AAApNA 1 mM
Bridge positions count the residues as written; N and C are the ends. Peptide text beside a SMILES is read from it.
Collected Residual activity of elastase values appear next to each entry.
Dear colleague, please return just the value in %, with no unit written.

Look over these answered cases.
{"compound": "CC[C@H](C)[C@@H]1NC(=O)[C@@H]2CCCN2C(=O)[C@@H]2CCCN2C(=O)[C@H]([C@@H](C)CC)NC(=O)[C@H](CO)NC(=O)[C@H](C)NC(=O)[C@H]([C@@H](C)O)NC(=O)[C@@H](NC(=O)[C@@H](N)Cc2ccc(O)cc2)CSSC[C@@H](C(=O)N[C@@H](CCC(N)=O)C(=O)O)NC1=O [EC29] (H-YCTASIPPICQ-OH; disulfide 2-10; C-terminus assumed)", "endpoint_value": 102.0}
{"compound": "CC[C@H](C)[C@@H]1NC(=O)[C@@H]2CCCN2C(=O)[C@@H]2CCCN2C(=O)[C@H]([C@@H](C)CC)NC(=O)[C@H](CO)NC(=O)[C@H](C)NC(=O)[C@H]([C@@H](C)O)NC(=O)[C@@H](NC(=O)[C@@H](N)CC(C)C)CSSC[C@@H](C(=O)N[C@@H](CCC(N)=O)C(=O)O)NC1=O [EC12] (H-LCTASIPPICQ-OH; disulfide 2-10; N-terminus and C-terminus assumed)", "endpoint_value": 97.8}

Pending compound:
Looking up CC[C@H](C)[C@@H]1NC(=O)[C@@H]2CCCN2C(=O)[C@@H]2CCCN2C(=O)[C@H]([C@@H](C)CC)NC(=O)[C@H](CO)NC(=O)[C@H](C)NC(=O)[C@H]([C@@H](C)O)NC(=O)[C@@H](NC(=O)[C@@H](N)C(C)C)CSSC[C@@H](C(=O)N[C@@H](CCC(N)=O)C(=O)O)NC1=O [EC22] (H-VCTASIPPICQ-OH; disulfide 2-10; C-terminus assumed) , I found its Residual activity of elastase recorded as 99.8
